Target: PEDV-3CL^pro (Porcine epidemic diarrhea virus (strain CV777) (PEDV), UniProt P0C6Y4)
Sequence (P0C6Y4 2998-3299 limits assumed): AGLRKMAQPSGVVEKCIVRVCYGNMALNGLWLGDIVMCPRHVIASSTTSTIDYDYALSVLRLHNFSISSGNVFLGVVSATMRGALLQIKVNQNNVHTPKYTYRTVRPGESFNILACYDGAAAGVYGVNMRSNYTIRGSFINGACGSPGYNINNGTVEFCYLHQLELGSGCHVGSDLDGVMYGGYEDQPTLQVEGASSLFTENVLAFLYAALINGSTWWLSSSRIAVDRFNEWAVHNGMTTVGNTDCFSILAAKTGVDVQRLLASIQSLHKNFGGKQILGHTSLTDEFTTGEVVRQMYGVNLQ
Test: biochemical
Reported endpoint: IC50 (µM)
Please give a number only; it is taken to be in µM.

// known answers, use as guide
[
  {
    "Molecule": "CC(C)(C)NC(=O)C(c1cccnc1)N(C(=O)c1c[nH]cn1)c1ccc(C2CC2)cc1 (stereo not shown)",
    "Reported endpoint": "IC50",
    "Observed": 17.6
  },
  {
    "Molecule": "CC(C)(C)NC(=O)C(c1cccnc1)N(C(=O)c1c[nH]cn1)c1ccc(C2CCCC2)cc1 (stereo not shown)",
    "Reported endpoint": "IC50",
    "Observed": 10.5
  },
  {
    "Molecule": "CC(C)(C)NC(=O)C(c1cccnc1)N(C(=O)c1c[nH]cn1)c1ccc(C2CCCCC2)cc1 (stereo not shown)",
    "Reported endpoint": "IC50",
    "Observed": 26.2
  }
]

Exercise: Give recorded IC50 with PEDV-3CL^pro (Porcine epidemic diarrhea virus (strain CV777) (PEDV), UniProt P0C6Y4) for the following molecule: CC(C)(C)c1ccc(N(C(=O)c2c[nH]cn2)C(C(=O)NC2CC2)c2cccnc2)cc1 (stereo not shown)
Solution: 4.3

Value source: patent US9975885B2
